Provenance of the data: PubChem BioAssay (Tox21)

Experiment summary: qHTS assay to identify small molecule antagonists of the retinoid-related orphan receptor gamma (ROR-gamma) signaling pathway - cell viability counter screen (AID 1159520); further: nearly all actives have a fitted effect of over 50% in size
Test parameters: Tet-on RORgamma CHO cells viability, ATP luminescence, 16 h; series mostly up to 92.4 µM
Inconclusive results are not listed. Calls of active or inactive are those of the source. The call rests on the fitted dose curve; in most records, active means well fitted cell-killing curve with a large enough effect in the repeat runs; inconclusive means weak or mixed curves, or effect the other way; inactive means no such curve, though single readings can be large or run the other way.
Respond with a class label; see true (1) (active), false (0) (inactive)

Answered cases to consult:
1) CCC=CC#N; false (0)
2) CCCCC(CC)CN (stereo not drawn); false (0)
3) O=C(/C=C/c1ccccc1)OCCc1ccccc1; false (0)

*Q* # outcome recorded in this test, key = FC(F)(F)c1ccccc1Cl
*A* false (0)

*Q* # outcome recorded in this test, key = Cc1cc(=O)c2c(O)c3c(O)cc(=O)c4c3c3c(cc(O)c1c23)C(C)(C)C=4O
*A* true (1)

*Q* # outcome recorded in this test, key = CCOC(=O)/C=C/C(=O)OCC
*A* false (0)

*Q* # outcome recorded in this test, key = O=C1c2ccccc2C(=O)C1c1nc2ccccc2c(Br)c1O
*A* false (0)

====

Target under test: Progesterone receptor (Homo sapiens)
Experiment summary: qHTS assay to identify small molecule antagonists of the progesterone receptor (PR) signaling pathway (AID 1346795)
Test parameters: PR-UAS-bla HEK293T, beta-lactamase FRET ratio, 16 h; series mostly up to 92.4 µM
Results filed as inconclusive are left out. Active and inactive are the calls of the source. Calls follow the shape of the dose curve; as a rule, active = well fitted inhibition curve with a large enough effect in the signal ratio in the repeat runs (not every such curve was filed as active); inconclusive = weak or mixed curves; inactive = flat fitted curve, though single readings scatter; the % refers to the signal ratio.
Respond with a class label; see class 1 = active, class 0 = inactive

Answered cases to consult:
1) CC1(C)S[C@@H]2[C@H](NC(=O)C(c3ccccc3)S(=O)(=O)O)C(=O)N2[C@H]1C(=O)O (stereo partly specified); class 0
2) Brc1cc(Br)c(Oc2cc(Br)c(Br)cc2Br)cc1Br; class 0
3) CC(C)C(O)(c1ccc(OC(F)(F)F)cc1)c1cncnc1 (stereo unspecified); class 1
4) CN1CC(=O)N2[C@H](c3ccc4c(c3)OCO4)c3[nH]c4ccccc4c3C[C@@H]2C1=O; class 0
5) c1ccc(C[n+]2cccc3ccccc32)cc1; class 0

*Q* # outcome recorded in this test, key = Oc1cccc(Nc2ccccc2)c1
*A* class 1

====

Target under test: Nuclear receptor subfamily 1 group I member 2 (Rattus norvegicus)
Experiment summary: Rat pregnane X receptor (rPXR) activation by small molecules, qHTS assay (AID 1346983); further: potency means the concentration at half of the fitted maximal effect; nearly all actives have a fitted effect of over 20% in size
Test parameters: rPXR luciferase reporter cells, One-Glo luminescence, 24 h
Records with an inconclusive call do not appear. Activity calls are given as the source filed them. Calls follow the shape of the dose curve; as a rule, active = well fitted activation curve with a large enough effect in the repeat runs; inconclusive = weak or mixed curves; inactive = no such curve, though single readings can be large or run the other way.
Here, each record is paired with measured Potency data.

// worked examples, Potency included
1) C[C@@H]1CC(=O)NN=C1c1ccc(NN=C(C#N)C#N)cc1; 14.1 µM (active)
2) CC(C)=CCC1C(=O)N(c2ccccc2)N(c2ccccc2)C1=O; 28.2 µM (active)
3) CCCC(C(=O)OCCN(CC)CC)(c1ccccc1)c1ccccc1; 22.4 µM (active)

Please turn your attention to the following entry.
*Q* Bench note: what Potency did O=C1c2ccccc2C(=O)C1c1ccc(Br)cc1 show?
*A* 11.2 µM (active)

====

Experiment summary: Caspase-3/7 induction in CHO-K1 cells by small molecules, qHTS cell viability counter screen (AID 1346979); further: nearly all actives have a fitted effect of over 35% in size
Test parameters: CellTiter-Fluor fluorescence, 17 h; series mostly up to 92.4 µM
Inconclusive results are not listed. Calls of active or inactive are those of the source. Calls come from the whole dose curve; as a rule, active = well fitted cell-killing curve with a large enough effect in the repeat runs; inconclusive = weak or mixed curves, or effect the other way; inactive = no such curve, though single readings can be large or run the other way.
Respond with a class label; see active, inactive

Answered cases to consult:
1) Cc1ccc(OC(=O)c2ccccc2O)cc1; inactive
2) Nc1ncnc2c1ncn2[C@H]1CC[C@@H](CO)O1; inactive
3) CCOC(=O)c1ccc(OCCN2C[C@H](O)[C@@H](O)[C@H](O)[C@H]2CO)cc1; inactive

*Q* # outcome recorded in this test, key = Cc1cccc(N(C)C(=S)Oc2ccc3c(c2)CCC3)c1
*A* inactive

*Q* # outcome recorded in this test, key = C[C@@H]1CN(CCCn2c3ccccc3c3ccccc32)C[C@H](C)N1
*A* active

*Q* # outcome recorded in this test, key = CCCCCC#CC(=O)OC
*A* inactive

====

Target under test: Androgen receptor (Homo sapiens)
Experiment summary: qHTS assay to identify small molecule antagonists of the androgen receptor (AR) signaling pathway using the MDA cell line (AID 743042; further: nearly all actives have a fitted effect of over 55% in size)
Test parameters: MDA-kb2 AR-luc, MMTV luciferase, R1881 antagonist, 16 h; series mostly up to 70.3 µM
Records with an inconclusive call do not appear. The source made the active and inactive calls. Calls come from the whole dose curve; as a rule, active = well fitted inhibition curve with a large enough effect in the repeat runs; inconclusive = weak or mixed curves, or effect the other way; inactive = no such curve, though single readings can be large or run the other way.
Respond with a class label; see active, inactive

*Q* # outcome recorded in this test, key = CC(=O)OCC(=O)NCCCOc1cccc(CN2CCCCC2)c1
*A* inactive

*Q* # outcome recorded in this test, key = CCCCCCC(C)(C)C(=O)O
*A* inactive

*Q* # outcome recorded in this test, key = O=[N+]([O-])c1cc(C2CCCCC2)c(O)c([N+](=O)[O-])c1
*A* active

*Q* # outcome recorded in this test, key = O=C1Cc2ccccc2N1c1c(Cl)cccc1Cl
*A* active

*Q* # outcome recorded in this test, key = CCC(=O)OC
*A* inactive

*Q* # outcome recorded in this test, key = NC1[C@H]2CN(c3nc4c(cc3F)c(=O)c(C(=O)O)cn4-c3ccc(F)cc3F)C[C@@H]12 (some centres undefined)
*A* inactive

*Q* # outcome recorded in this test, key = O=C=Nc1cccc(C(F)(F)F)c1
*A* inactive

====

Experiment summary: qHTS assay for identifying genotoxic compounds that show differential cytotoxicity against isogenic chicken DT40 cell lines with known DNA damage response pathways - Rad54/Ku70 mutant cell line (AID 743015); further: nearly all actives have a fitted effect of over 60% in size
Test parameters: DT40 Rad54/Ku70 mutant viability, CellTiter-Glo, 40 h; series mostly up to 66.8 µM
Records with an inconclusive call do not appear. The source made the active and inactive calls. The call rests on the fitted dose curve; in most records, active means well fitted cell-killing curve with a large enough effect in the repeat runs; inconclusive means weak or mixed curves; inactive means no such curve, though single readings can be large or run the other way.
Respond with a class label; see true = active, false = inactive

Answered cases to consult:
1) NC(=O)c1ccncc1; false
2) CCCC(C(=O)OCCN(CC)CC)(c1ccccc1)c1ccccc1; true
3) CC[C@]1(O)C[C@H]2CN(CCc3c([nH]c4ccccc34)[C@@](C(=O)OC)(c3cc4c(cc3OC)N(C=O)[C@H]3[C@@](O)(C(=O)OC)[C@H](OC(C)=O)[C@]5(CC)C=CCN6CC[C@]43[C@@H]65)C2)C1; true
4) Oc1ccc(Cl)c2cccnc12; true
5) CC1(CN2CCC(n3c(=O)[nH]c4ccccc43)CC2)OCc2ccccc2-n2cccc21 (configuration not stated); true

*Q* # outcome recorded in this test, key = C=C1C[C@@]23CC[C@H]4[C@@](C)(CCC[C@@]4(C)C(=O)O[C@@H]4O[C@H](CO)[C@@H](O)[C@H](O)[C@H]4O)[C@@H]2CC[C@]1(O[C@@H]1O[C@H](CO)[C@@H](O)[C@H](O[C@@H]2O[C@H](CO)[C@@H](O)[C@H](O)[C@H]2O)[C@H]1O[C@@H]1O[C@H](CO)[C@@H](O)[C@H](O)[C@H]1O)C3
*A* false

*Q* # outcome recorded in this test, key = CC(O)c1ccccc1 (configuration not stated)
*A* false

*Q* # outcome recorded in this test, key = CCC1NC(=O)c2cc(S(N)(=O)=O)c(Cl)cc2N1 (configuration not stated)
*A* false

*Q* # outcome recorded in this test, key = NNC(=O)CP(=O)(c1ccccc1)c1ccccc1
*A* false

*Q* # outcome recorded in this test, key = CCC=CC#N
*A* false

====

Experiment summary: Caspase-3/7 induction in CHO-K1 cells by small molecules, qHTS assay (AID 1346980); further: potency means the concentration at half of the fitted maximal effect; nearly all actives have a fitted effect of over 15% in size
Test parameters: CHO-K1 caspase-3/7 induction, Caspase-Glo luminescence, 17 h; series mostly up to 92.4 µM
Calls of active or inactive are those of the source. Calls follow the shape of the dose curve; as a rule, active = well fitted activation curve with a large enough effect in the repeat runs; inconclusive = weak or mixed curves; inactive = flat fitted curve, though single readings scatter.
Respond with a class label; see 1 for active, 0 for inactive

*Q* # outcome recorded in this test, key = C[C@]12CC[C@@H]3c4ccc(O)cc4CC[C@H]3[C@@H]1CC[C@@H]2OC(=O)CCC1CCCC1
*A* 1

====

Experiment summary: A CellTox Green Cytotoxicity Assay to monitor cytotoxicity in HepG2 cells - 40 hour (AID 1224879); further: nearly all actives have a fitted effect of over 40% in size
Test parameters: CellTox Green fluorescence; series mostly up to 76.8 µM
Records with an inconclusive call do not appear. The source made the active and inactive calls. Calls come from the whole dose curve; as a rule, active = well fitted activation curve with a large enough effect in the repeat runs; inconclusive = weak or mixed curves; inactive = flat fitted curve, though single readings scatter.
Respond with a class label; see true (active), false (inactive)

Answered cases to consult:
1) O=Cc1c2ccccc2c(Cl)c2ccccc12; false
2) CCOc1ccc(Cc2nccc3cc(OCC)c(OCC)cc23)cc1OCC; true
3) COc1ccccc1Oc1c(NS(=O)(=O)c2ccc(C(C)(C)C)cc2)nc(-c2ncccn2)nc1OCCO; false

*Q* # outcome recorded in this test, key = CN1C(C(=O)Nc2ccccn2)=C(O)c2sccc2S1(=O)=O
*A* false

*Q* # outcome recorded in this test, key = NC1[C@H]2CN(c3nc4c(cc3F)c(=O)c(C(=O)O)cn4-c3ccc(F)cc3F)C[C@@H]12 (stereo partly specified)
*A* false

*Q* # outcome recorded in this test, key = COc1cc(C(=O)NC2CCN(C)CC2)ccc1Nc1ncc2c(n1)N(C1CCCC1)CC(F)(F)C(=O)N2C
*A* true
